conditions: [M+Na]+; instrument: DT; stepped-field
measured_endpoint: collision cross section (N2) (Å²)
Give a bare numeral; the unit Å² is implied.

Retrieve collision cross section (N2) measured for CCCCCCCCCCCCC=CC[C@@H](O)[C@H](CO[C@@H]1O[C@H](CO)[C@@H](O)C(O)C1O)NC(=O)CC=CCC=CCCCCCCCCCCCCCCCCCC (stereo partly drawn) [GlcCer(43:3)] and print it.
306.1

Further cases:
Retrieve collision cross section (N2) measured for CCCCCCCCCCCCC=CC[C@@H](O)[C@H](COP(=O)([O-])OCC[N+](C)(C)C)NC(=O)CC=CCC=CCCCCCCCCCCCCCCCCCC [SM(43:3)] and print it.
309.6

Retrieve collision cross section (N2) measured for OC[C@H]1O[C@H](O[C@H]2[C@H](O)[C@@H](O)[C@@H](O[C@H]3[C@H](O)[C@@H](O)[C@@H](O[C@H]4[C@H](O)[C@@H](O)C(O)O[C@@H]4CO)O[C@@H]3CO)O[C@@H]2CO)[C@H](O)[C@@H](O)[C@@H]1O (stereo partly drawn) [Maltotetraose] and print it.
235.3

----------
Below: a set of entries, each annotated with reported collision cross section (N2).
conditions: [M+H]+; instrument: DT; single field, calibrated with Agilent tune mix (Agilent)
Give a bare numeral; the unit Å² is implied.

Retrieve collision cross section (N2) measured for CC(=O)NCCCCNCCCN [N8-Acetylspermidine] and print it.
142.7

Retrieve collision cross section (N2) measured for C[N+](C)(C)CCOP(=O)([O-])OP(=O)(O)OC[C@H]1O[C@@H](n2ccc(N)nc2=O)[C@H](O)[C@@H]1O [Cytidine 5'-diphosphocholine] and print it.
197.6

Further cases:
Retrieve collision cross section (N2) measured for NC(=O)c1ccc[n+]([C@@H]2O[C@H](COP(=O)([O-])O)[C@@H](O)[C@H]2O)c1 [Nicotinamide ribotide] and print it.
165.2

Retrieve collision cross section (N2) measured for C[C@]12CCC(=O)C=C1CC[C@@H]1[C@@H]2[C@@H](O)C[C@@]2(C)[C@H]1CC[C@]2(O)C(=O)CO [Hydrocortisone (Cortisol)] and print it.
189.1

Retrieve collision cross section (N2) measured for NC(CCCC(N)C(=O)O)C(=O)O (stereo unspecified) [Diaminopimelic acid] and print it.
140.8

Retrieve collision cross section (N2) measured for CC(=O)SCCNC(=O)CCNC(=O)[C@H](O)C(C)(C)COP(=O)(O)OP(=O)(O)OC[C@H]1O[C@@H](n2cnc3c(N)ncnc32)[C@H](O)[C@@H]1OP(=O)(O)O [Acetyl-CoA] and print it.
244.7

Retrieve collision cross section (N2) measured for NC(=NCCCC(N)C(=O)O)NO (stereo unspecified) [N-(omega)-Hydroxyarginine] and print it.
139

Retrieve collision cross section (N2) measured for OCCc1c[nH]c2ccc(O)cc12 [5-Hydroxytryptophol] and print it.
138.7

Retrieve collision cross section (N2) measured for CCCCCCCCCCCCCCCCCC(=O)O[C@H](CC(=O)[O-])C[N+](C)(C)C [Stearoylcarnitine] and print it.
221.1

----------
conditions: [M-H]-; instrument: TW; calibrated with phosphatidylcholines (ESI+) and phosphatidylethanolamines (ESI-)
measured_endpoint: collision cross section (N2) (Å²)
Give a bare numeral; the unit Å² is implied.

Retrieve collision cross section (N2) measured for "CCCCC/C=C\C/C=C\CCCCCCCC(=O)O[C@H](COC(=O)CCCCCCCCCCCC)COP(=O)(O)OC[C@@H](O)CO" and print it.
257.9

Retrieve collision cross section (N2) measured for "CCCC/C=C\CCCCCCCC(=O)OC[C@H](COP(=O)(O)OC[C@@H](O)CO)OC(=O)CCCCCCC/C=C\CCCCCCCC" and print it.
261.4

Retrieve collision cross section (N2) measured for "CCCCCCCCCCCCCCCCCCCCC(=O)O[C@H](COC(=O)CCCCCCCCCCCCC)COP(=O)(O)OC[C@@H](O)CO" and print it.
275
